Overview of reported pKi across a group of compounds:
# target under test: human sigma 1 receptor (Homo sapiens, UniProt Q99720)
# Construct: expressed in transfected cells; host or cells: HEK-293
# Sequence (Q99720 whole entry): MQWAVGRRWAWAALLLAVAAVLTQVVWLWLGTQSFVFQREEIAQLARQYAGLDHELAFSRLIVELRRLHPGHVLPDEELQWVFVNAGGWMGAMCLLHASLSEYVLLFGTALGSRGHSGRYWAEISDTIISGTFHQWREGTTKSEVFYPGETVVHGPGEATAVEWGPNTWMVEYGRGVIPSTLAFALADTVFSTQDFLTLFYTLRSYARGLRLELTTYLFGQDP
# assay name: Human sigma 1 receptor radioligand assay ([3H](+)-pentazocine, transfected HEK-293 membranes)
# Assay type: binding
# reported conditions: 5 nM [3H](+)-pentazocine, 37° C., 120 minutes
Counter-ions that a name gives are not always drawn.
Lab note: report pKi as minus log10 of the concentration in molar units, number only.

Use the examples below as a reference point.
compound | pKi
Fc1ccc2c(c1)cc1n2CCN(CCCCN2CCCCC2)C1 [Example 12] | 8.12
CN1CCN(CCN2CCn3c(cc4ccccc43)C2)CC1 [Example 5, hydrochloride] | 6.82
c1ccc2c(c1)cc1n2CCN(CCN2CCCCCC2)C1 [Example 3, hydrochloride] | 8.41

As a next step, examine the compound that follows.
Q: Which pKi is reported with human sigma 1 receptor (Homo sapiens, UniProt Q99720) for this entry: CN(C)CCCCN1CCN2c3ccccc3CC2C1 (stereo not shown) [Example 19] ?
A: 6.82

----------
# target under test: human sigma 1 receptor (Homo sapiens, UniProt Q99720)
Structures can show the parent of a compound that is named as a salt.
List of pKi values.
Lab note — pKi values are minus log10 of concentrations in M.

compound | pKi
CC(CN1CCn2c(cc3ccccc32)C1)N1CCC(Cc2ccccc2)CC1 (centres unmarked) [Example 6, maleate] | 6.76

Q: What value of pKi has been reported for the following compound? CC(CN1CCn2c(cc3ccccc32)C1)N1CCN(C2CCCCC2)CC1 (centres unmarked)
A: 8.04

Q: I am curious: what pKi value has been reported for Cc1ccc2c(c1)cc1n2CCN(CC(C)N2CCCCCC2)C1 (centres unmarked) ?
A: 8.13

Q: Request the reported pKi associated with c1ccc(CC2CCN(CCN3CCn4c(cc5ccccc54)C3)CC2)cc1 [Example 4, hydrochloride]
A: 7.84

Q: # query: pKi of entry `c1ccc2c(c1)cc1n2CCN(CCCN2CCCCCC2)C1`
A: 7.70

Reference source for all entries: patent US9879015B2
